- Protocol description: yeast display, Sf9 membrane polyspecificity reagent, FACS + sequencing; frameworks hold sequencing errors
Property label: polyreactivity (PSR sort gate)

Here are 4 sequences together with their reported answers.
QVQLVESGGGLVQAGGSLRLSCAASGYTFRYYAMGWYRQAPGKERELVAAISRSGGSTYYADSVKGRFTISRDNAKNTVSLQMNSLKPEDTAVYYCAVALARPYEDYDYWGQGTQVTVSS; high polyreactivity
QVQLVESGGGLVQAGGSLRLSCAASGSIFLQNAMGWYRQAPGKERELVAAITNGGSTNYADSVKGRFTISRDNAKNTVYLQMNSLKPEDSAVYYCAAYPLYTGSYDRGGYWGQGTQVTVSS; low polyreactivity
QVQLVESGGGLVQAGGSLRLSCAASGGIFDTNAMGWSRQAPGKERELVAAIRGSGGTYYADSVKGRFTISRDNAKNTVYLQMNSLKPEDTAVYYCATRTYRVLAGSAWYHYNYWGQGTQVTVSS; high polyreactivity
QFQLVEAGGGLVQAGGSLRLSCAASGSIFTYAMGWYRQAPGKEREFVAAISRSGGRTYYADSVKGRFTMSRDNAKNTVYFQMNSLKPDDTAVYYCAPLLLKDYDYWGQGTQVTVSS; low polyreactivity

Turning to the following sequence.
IN: Return value of polyreactivity (PSR sort gate) for input `QVQLVESGGGIVQAGGSLRLSCAASGRIFGFYAMVWYRQAPGNERELVAAITINTGSTSYADSVKGRFTSSRDNAKNTDSLPMNSLKPEDTAVYYCATDAAAPKYDYWGQGPQVTVSS` , no commentary.
OUT: low polyreactivity
